What pIC50 was measured for each of the following?
- targetOrTestSystem: UniProt P14842
Interpret pIC50 as the negative base-10 log of the concentration measured in mol/L.

Inquiry: Param readout= pIC50; system= UniProt P14842; entry= COc1ccccc1N1CCN(CCCCOc2ccc3c4c(c(=O)oc3c2)CCC4)CC1 ; returns value.
Reply text: 9.11

Inquiry: What about this molecule? O=c1oc2c(Cl)c(OCCCCN3CCC(c4noc5cc(F)ccc45)CC3)ccc2c2c1CCC2
Reply text: 9.54

Inquiry: Same again, this time with O=c1oc2cc(OCCCN3CCC(c4noc5cc(F)ccc45)CC3)ccc2c2c1CCC2
Reply text: 9.25

Inquiry: // same read-out, input: COc1ccccc1N1CCN(CCCCOc2ccc3c4c(c(=O)oc3c2)CCCC4)CC1
Reply text: 8.74

Inquiry: Continue with O=c1oc2c(Cl)c(OCCCCN3CCN(c4nsc5ccccc45)CC3)ccc2c2c1CCC2
Reply text: 9.09

* * *

Record form. Attribute: inhibition at 10 µM. Fill in for each entry.
- targetOrTestSystem: D2 receptor (Rattus norvegicus (Rat))
- Sequence (P61169 whole entry): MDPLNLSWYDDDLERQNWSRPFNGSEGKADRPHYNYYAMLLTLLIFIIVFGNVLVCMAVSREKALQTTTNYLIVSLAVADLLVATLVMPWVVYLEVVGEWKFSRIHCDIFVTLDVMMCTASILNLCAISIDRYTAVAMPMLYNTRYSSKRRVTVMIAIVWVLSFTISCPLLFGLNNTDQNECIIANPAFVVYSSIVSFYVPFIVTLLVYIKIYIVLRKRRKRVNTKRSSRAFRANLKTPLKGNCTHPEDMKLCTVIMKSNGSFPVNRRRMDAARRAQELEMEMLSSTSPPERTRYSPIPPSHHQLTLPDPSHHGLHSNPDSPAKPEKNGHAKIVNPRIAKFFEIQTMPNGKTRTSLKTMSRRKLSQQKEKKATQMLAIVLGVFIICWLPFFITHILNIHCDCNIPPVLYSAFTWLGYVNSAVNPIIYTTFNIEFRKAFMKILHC
- methodSummary: D2 receptor inhibition binding assay (3H-Spiperone)
- testParameters: read-out: D2 inhibition %
// return numeric value only (unit: %, not printed)

Inquiry: Using the record for O=c1oc2cc(OCCCN3CCN(c4cccc(C(F)(F)F)c4)CC3)ccc2c2c1CCC2 , report its inhibition at 10 µM.
Reply text: 17.2

Inquiry: Request: COc1ccc(N2CCN(CCCCOc3ccc4c5c(c(=O)oc4c3)CCC5)CC2)cc1
Reply text: 26.4

Inquiry: # repeat for O=c1oc2cc(OCCCCN3CCN(c4ccc(F)cc4)CC3)ccc2c2c1CCC2
Reply text: 15.2

Inquiry: Now the same for COc1ccccc1N1CCN(CCCOc2ccc3c4c(c(=O)oc3c2)CCC4)CC1
Reply text: 50.2

Inquiry: Moving on to O=c1oc2cc(OCCCCN3CCC(c4noc5cc(F)ccc45)CC3)ccc2c2c1CCC2
Reply text: 5.7

Inquiry: Param item: COc1ccccc1N1CCN(CCCOc2ccc3c4c(c(=O)oc3c2C)CCC4)CC1
Reply text: 4.7

Inquiry: Now consider Cc1cccc(N2CCN(CCCOc3ccc4c5c(c(=O)oc4c3)CCC5)CC2)c1C and answer again.
Reply text: 3.3

Inquiry: Further, for O=c1oc2cc(OCCCCN3CCC(c4noc5cc(F)ccc45)CC3)c(Cl)cc2c2c1CCC2 ?
Reply text: 51.5

Inquiry: Please give the result for COc1ccccc1N1CCN(CCCCOc2ccc3c4c(c(=O)oc3c2C)CCC4)CC1 too.
Reply text: 59.2

Inquiry: Also need Cc1c(OCCCCN2CCN(c3nsc4ccccc34)CC2)ccc2c3c(c(=O)oc12)CCC3 , thanks.
Reply text: 61.2

Inquiry: Note, next up: COc1ccccc1N1CCN(CCCCOc2ccc3c4c(c(=O)oc3c2Cl)CCC4)CC1
Reply text: 59.2

Inquiry: Same read-out for COc1ccccc1N1CCN(CCCCOc2cc3oc(=O)c4c(c3cc2Cl)CCC4)CC1 ?
Reply text: 15.4

Inquiry: Similarly, O=c1oc2cc(OCCCCN3CCC(c4noc5cc(F)ccc45)CC3)ccc2c2c1CCCC2 ?
Reply text: 80.6

Inquiry: Moving on to the next compound: O=c1oc2cc(OCCCN3CCN(c4cccc(Cl)c4Cl)CC3)ccc2c2c1CCC2
Reply text: 11.5

Inquiry: # repeat for COc1ccccc1N1CCN(CCCCOc2ccc3c4c(c(=O)oc3c2C)CCCC4)CC1
Reply text: 66.4

* * *

- methodSummary: in vivo
- testParameters: both, Kunming (KM), mouse, po
Provide the recorded ED50 for the entries that follow.
Output spec: scalar in mg/kg, unitless text.

Inquiry: Reported ED50, molecule O=C1Cc2cc(CCN3CCN(c4nsc5ccccc45)CC3)c(Cl)cc2N1 : ____
Reply text: 30.4

Inquiry: Next molecule: O=C1CCc2ccc(OCCCCN3CCN(c4cccc(Cl)c4Cl)CC3)cc2N1
Reply text: 2.4

Inquiry: // next record OCCOCCN1CCN(C2=Nc3ccccc3Sc3ccccc32)CC1
Reply text: 800

Inquiry: What do we get for O=C(CCCN1CCC(O)(c2ccc(Cl)cc2)CC1)c1ccc(F)cc1 ?
Reply text: 0.44

* * *

- methodSummary: in vivo
- testParameters: both sexes, mouse, in vivo; po, mice, single intragastric administration; read-out: LD50
observedProperty: LD50

Inquiry: Returns the measured LD50 for the input compound. Input: O=C(CCCN1CCC(O)(c2ccc(Cl)cc2)CC1)c1ccc(F)cc1
Reply text: 20 mg/kg

Inquiry: Follow-up item: O=C1Cc2cc(CCN3CCN(c4nsc5ccccc45)CC3)c(Cl)cc2N1
Reply text: > 2000 mg/kg

Inquiry: Also O=c1oc2c(Cl)c(OCCCCN3CCN(c4nsc5ccccc45)CC3)ccc2c2c1CCC2 ?
Reply text: > 2000 mg/kg

Inquiry: Consider next the compound COc1ccccc1N1CCN(CCCCOc2ccc3c4c(c(=O)oc3c2)CCC4)CC1 in the same way.
Reply text: > 2000 mg/kg

Inquiry: What about this compound? O=c1oc2c(Cl)c(OCCCCN3CCC(c4noc5cc(F)ccc45)CC3)ccc2c2c1CCC2
Reply text: > 2000 mg/kg

Inquiry: Same for O=c1oc2cc(OCCCN3CCC(c4noc5cc(F)ccc45)CC3)ccc2c2c1CCC2
Reply text: > 2000 mg/kg

Inquiry: Moving on to the next compound: COc1ccccc1N1CCN(CCCCOc2ccc3c4c(c(=O)oc3c2)CCCC4)CC1
Reply text: > 2000 mg/kg

Inquiry: Same question for CN1CCN(C2=Nc3cc(Cl)ccc3Nc3ccccc32)CC1 please.
Reply text: 150 mg/kg

* * *

- targetOrTestSystem: 5HT2A receptor (Rattus norvegicus (Rat))
- Sequence (P14842 whole entry): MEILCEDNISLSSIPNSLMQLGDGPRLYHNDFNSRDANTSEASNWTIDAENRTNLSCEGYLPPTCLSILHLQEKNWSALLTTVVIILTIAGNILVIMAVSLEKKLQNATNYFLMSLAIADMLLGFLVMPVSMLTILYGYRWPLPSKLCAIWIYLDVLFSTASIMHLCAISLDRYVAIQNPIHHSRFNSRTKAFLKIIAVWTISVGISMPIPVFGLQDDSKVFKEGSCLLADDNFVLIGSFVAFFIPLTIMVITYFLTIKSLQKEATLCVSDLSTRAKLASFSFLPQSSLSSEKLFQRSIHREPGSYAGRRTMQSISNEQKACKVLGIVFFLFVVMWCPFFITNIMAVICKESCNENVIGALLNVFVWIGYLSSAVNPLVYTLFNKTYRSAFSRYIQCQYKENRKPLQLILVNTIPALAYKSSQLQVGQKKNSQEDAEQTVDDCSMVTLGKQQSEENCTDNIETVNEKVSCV
- methodSummary: 5HT2A receptor binding assay ([3H]-Ketanserin)
- testParameters: read-out: 5HT2A inhibition %
observedProperty: inhibition at 10 µM (%)
Please give a number only; it is taken to be in %.

Inquiry: Endpoint output: inhibition at 10 µM of O=c1oc2cc(OCCCCN3CCC(c4noc5cc(F)ccc45)CC3)c(Cl)cc2c2c1CCC2 . Value?
Reply text: 88.4

Inquiry: Now the same for COc1ccc(N2CCN(CCCCOc3ccc4c5c(c(=O)oc4c3)CCC5)CC2)cc1
Reply text: 23.4

Inquiry: Also, Cc1c(OCCCCN2CCN(c3nsc4ccccc34)CC2)ccc2c3c(c(=O)oc12)CCC3 please.
Reply text: 107

Inquiry: Field entry: O=c1oc2cc(OCCCN3CCN(c4cccc(Cl)c4Cl)CC3)ccc2c2c1CCC2
Reply text: 14.3

Inquiry: What do you have for COc1ccccc1N1CCN(CCCCOc2cc3oc(=O)c4c(c3cc2Cl)CCC4)CC1 ?
Reply text: 104

Inquiry: And the next one, Cc1cccc(N2CCN(CCCOc3ccc4c5c(c(=O)oc4c3)CCC5)CC2)c1C ?
Reply text: 82.9

Inquiry: Also need COc1ccccc1N1CCN(CCCCOc2ccc3c4c(c(=O)oc3c2C)CCCC4)CC1 , thanks.
Reply text: 90.7

Inquiry: Let us now turn to O=c1oc2cc(OCCCCN3CCC(c4noc5cc(F)ccc45)CC3)ccc2c2c1CCC2
Reply text: 68.4
